Study target: Adenosine receptor A2b (Homo sapiens)
Sequence (P29275 whole entry): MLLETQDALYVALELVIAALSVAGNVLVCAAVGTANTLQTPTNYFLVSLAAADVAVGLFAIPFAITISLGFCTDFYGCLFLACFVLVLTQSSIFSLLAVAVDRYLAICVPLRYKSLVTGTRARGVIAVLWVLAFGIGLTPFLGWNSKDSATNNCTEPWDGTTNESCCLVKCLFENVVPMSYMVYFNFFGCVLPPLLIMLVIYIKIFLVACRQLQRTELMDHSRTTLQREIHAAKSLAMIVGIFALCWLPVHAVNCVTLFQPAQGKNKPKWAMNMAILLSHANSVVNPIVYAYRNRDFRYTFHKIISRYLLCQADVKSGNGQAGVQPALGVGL
Procedure summary: Displacement of [3H]DPCPX from human adenosine A2B receptor expressed in HEK293 cell membranes incubated for 30 mins by scintillation counting method
Set-up: species or system Cell membrane
Recorded endpoint: Ki (nM)

Per the record, CC1=C(c2ncc(C)o2)C(c2ccoc2)NC(=O)N1 (racemic) has Ki of 801

A = CC1=C(C(=O)OC2CCC2)C(c2ccsc2)NC(=O)N1 (racemic)
B = CC1=C(C(=O)OCC2CCC2)C(c2ccsc2)NC(=O)N1 (racemic)
C = CC1=C(C(=O)OCc2ccccc2)C(c2ccoc2)NC(=O)N1 (racemic)
D = CCCOC(=O)C1=C(C)NC(=O)NC1c1cccs1 (racemic)
E = CCOC(=O)C1=C(C)N=C(S)NC1c1cccs1 (racemic)
QUERY: Order the records, beginning with the lowest Ki and ending with the highest. Provide the ranking by listing each label in its place in the requested order.
RESULT: A, B, D, E, C

a = CC1=C(C(=O)C2CC2)C(c2ccco2)NC(=O)N1 (racemic)
b = CC1=C(C(=O)OCC(C)C)C(c2cccs2)NC(=O)N1 (racemic)
c = CC1=C(C(=O)OC(C)C)C(c2ccsc2)NC(=S)N1 (racemic)
QUERY: Sequence the entries by Ki, beginning with the highest number. Provide the ranking by listing each label in its place in the requested order.
RESULT: b, a, c

P = COC(=O)C1=C(C)N=C(S)NC1c1ccco1 (racemic)
Q = CCCOC(=O)C1=C(C)NC(=O)NC1c1ccsc1 (racemic)
QUERY: I would appreciate it if you could say which entry, P or Q , has the lower Ki value. Selection: enter the item's label.
RESULT: Q
(Q: 201 nM, P: 984 nM)

I = CC1=C(C(=O)OCc2ccccc2)C(c2ccco2)NC(=O)N1 (racemic)
II = CC1=C(C(=O)OC2CCC2)C(c2ccoc2)NC(=O)N1 (racemic)
QUERY: I would appreciate it if you could say which entry, I or II , has the lower Ki value. Selection: enter the item's label.
RESULT: II
(II: 307 nM, I: 887 nM)

a = CC1=C(C(=O)CC(C)C)C(c2ccco2)NC(=O)N1 (racemic)
b = CC1=C(C(=O)OC2CCCC2)C(c2ccsc2)NC(=O)N1 (racemic)
QUERY: I would appreciate it if you could say which entry, a or b , has the lower Ki value. Selection: enter the item's label.
RESULT: a

a = CC1=C(C(=O)OCC2CC2)C(c2cccs2)NC(=O)N1 (racemic)
b = CCCC(=O)C1=C(C)NC(=O)NC1c1ccco1 (racemic)
c = CC1=C(C(=O)OCC(C)C)C(c2ccco2)NC(=O)N1 (racemic)
d = CCOC(=O)C1=C(C)NC(=O)N[C@@H]1c1ccsc1
e = CC1=C(C(=O)OCC2CCC2)C(c2ccco2)NC(=O)N1 (racemic)
QUERY: Order the records, beginning with the lowest Ki and ending with the highest. Provide the ranking by listing each label in its place in the requested order.
RESULT: d, c, e, b, a
(d: 11.1 nM, c: 199 nM, e: 561 nM, b: 807 nM, a: 1570 nM)

P = CC1=C(C(=O)OCc2ccccc2)C(c2cccs2)NC(=O)N1 (racemic)
Q = CC1=C(C(=O)SC(C)C)C(c2ccoc2)NC(=O)N1 (racemic)
QUERY: I would appreciate it if you could say which entry, P or Q , has the lower Ki value. Selection: enter the item's label.
RESULT: Q
(Q: 637 nM, P: 1920 nM)
